- Test system: HCT-116 colon
- EXPERIMENTAL PROTOCOL: NCI-60 one-dose screen, 48 h
- ASSAY CONTEXT: 10 µM unless noted
Compounds without any hit were thinned out: in the full panel of roughly 83,000, 20% have a hit. Calls of active or inactive are those of the source. Rule for the calls: active = growth percent below 10; inactive = the rest.
Parameter call: string, one of active, inactive

Solved entries:
{"MOLECULE": "Cc1nn(-c2ccccc2)c(Cl)c1/C=C/C(=O)c1ccc(F)cc1", "GROUP": "inactive"}
{"MOLECULE": "CC(c1ccccc1)C(C(=O)c1ccccc1)c1ccccc1 (stereo unspecified)", "GROUP": "inactive"}
{"MOLECULE": "CN(C)c1ccc(C2C(C#N)=C(/N=C/c3ccccc3)Oc3c2ccc2ccccc32)cc1 (stereo unspecified)", "GROUP": "inactive"}
{"MOLECULE": "CN1CCN(c2ccc(NC3=C(Cl)C(=O)c4ncccc4C3=O)cc2C(F)(F)F)CC1", "GROUP": "active"}
{"MOLECULE": "COc1ccc(C(=O)c2cc(C)c(OC)c(C)c2)c(OC)c1N(C(=O)CCl)C(=O)CCl", "GROUP": "active"}
{"MOLECULE": "O=[N+]([O-])c1ccc(NC(=S)N/N=C/c2cc3ccccc3n3nnnc23)cc1", "GROUP": "inactive"}
{"MOLECULE": "c1ccc2c(-c3nccs3)c[nH]c2c1", "GROUP": "inactive"}
{"MOLECULE": "C=C(CBr)[C@@H]1CC[C@]2(COC(C)=O)CC[C@]3(C)[C@H](CC[C@@H]4[C@@]5(C)CCCNC(C)(C)[C@@H]5CC[C@]43C)[C@@H]12", "GROUP": "inactive"}
{"MOLECULE": "Cn1cc(-c2nc(-c3c[nH]c4c(Cl)nccc34)cs2)c2cc(Br)ccc21", "GROUP": "inactive"}
{"MOLECULE": "C=C1C(=O)O[C@H]2[C@H]1CC/C(C(=O)NCCCCCNC(=O)/C1=C/CC[C@@]3(C)O[C@H]3[C@H]3OC(=O)C(=C)[C@@H]3CC1)=C\\CC[C@@]1(C)O[C@@H]21", "GROUP": "inactive"}

Please share the test call associated with CNCCOc1nc2c3cnccc3cc(-c3cc(OC)c(OC)c(OC)c3)c2c2ccncc12 .
active

What do you get for C=C(C)[C@@H]1CC[C@]2(CN)CC[C@]3(C)[C@H](CC[C@@H]4[C@@]5(C)CCCNC(C)(C)[C@@H]5CC[C@]43C)[C@@H]12 ?
active

What do you get for O=C(CSc1nc2sc3c(c2c(=O)n1-c1ccc(Cl)cc1)CCCC3)Nc1nc(-c2cccc(Br)c2)cs1 ?
inactive
